molecular target: T1, His-tagged ECD of human 4-1BB (human, UniProt Q07011 24-184); assay: SPR (Biacore), captured antibody, His-tagged ECD analyte
T1 construct: also called hu4-1BB; 4-1BB ECD; not shown: His tag

[
  {
    "binder": "hu107-1-hIgG4 (antibody, V domains shown, Human IgG4 constant region with the S228P mutation; also called hu107.1x.1x) VH: EVQLVQSGAEVKKPGSSVKVSCKASDYTFNDYWVSWVRQAPGQGLEWIGEIYPNSGATNFNGKFRGRATLTVDNSASTAYMELSSLRSEDTAVYYCTREYTRDWFAYWGQGTLVTVSS VL: DVVLTQSPLSLPVTLGQPASISCRSSQSLLDSDGNTYLYWFQQRPGQSPRRLIYLVSNLGSGVPDRFSGSGSGTDFTLKISRVEAEDVGVYYCMQPTHAPYTFGQGTKLEIK",
    "koff / s⁻¹": "8e-05"
  },
  {
    "binder": "20H4.9-hIgG4 (antibody, V domains shown) VH: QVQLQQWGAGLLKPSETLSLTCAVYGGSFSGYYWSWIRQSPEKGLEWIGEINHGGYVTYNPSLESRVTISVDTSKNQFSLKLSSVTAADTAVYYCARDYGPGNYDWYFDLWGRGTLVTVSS VL: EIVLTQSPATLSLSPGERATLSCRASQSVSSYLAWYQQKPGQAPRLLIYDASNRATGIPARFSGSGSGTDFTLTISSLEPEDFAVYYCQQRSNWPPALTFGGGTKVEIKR",
    "koff / s⁻¹": 0.0021
  },
  {
    "binder": "hu106-7-hIgG4 (antibody, V domains shown, Human IgG4 constant region with the S228P mutation; also called hu106.1y.3x) VH: EVQLVESGGGLVQPGGSLRLSCAASGYTFTSYYIYWVRQAPGKGLEWIGNIWPGNGGTFYGEKFMGRATFSADTSKNTAYLQMNSLRAEDTAVYYCARRPDYSGDDYFDYWGQGTLVTVSS VL: SVELTQPPSVSVSPGQTARITCKLNSGNIGSYYVHWYQQKPGQAPVTMIYRDDKRPDGIPERFSGSSDSSSNSAFLTISGVQAEDEADYYCHSYDSTITPVFGGGTKLTVL",
    "koff / s⁻¹": 0.047
  },
  {
    "binder": "hu107-3-hIgG4 (antibody, V domains shown, Human IgG4 constant region with the S228P mutation; also called hu107.1x.1y) VH: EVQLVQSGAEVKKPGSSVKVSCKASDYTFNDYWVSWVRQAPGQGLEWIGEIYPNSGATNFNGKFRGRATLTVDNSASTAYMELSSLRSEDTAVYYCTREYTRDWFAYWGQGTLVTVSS VL: DVQLTQSPSSLSASVGDRVTITCRSSQSLLDSDGNTYLYWFQQKPGKAPKRLIYLVSNLGSGVPSRFSGSGSGTDFTLTISSLQPEDFATYYCMQPTHAPYTFGQGTKVEIK",
    "koff / s⁻¹": 0.00011
  }
]
